Molecular target: Sodium/potassium-transporting ATPase (Sus scrofa)
Assay: Inhibition of NA+/K+ ATPase (porcine cerebral cortex) activity incubated for 15 mins in presence of ATP by ADP-Glo assay
Experimental Endpoint: pIC50
In plain terms, pIC50 is the concentration in mol/L turned into minus its base-10 logarithm.

Output reported pIC50 of the molecule CO[C@H]1C[C@H](O[C@H]2CC[C@]3(C)C4[C@H](O)C(=O)[C@]5(C)[C@@H](C6=CC(=O)OC6)CC[C@]5(O)[C@@]45O[C@H]5C[C@@H]3C2)O[C@@H](C)[C@@H]1O (stereo partly specified) on Sodium/potassium-transporting ATPase (Sus scrofa).
5.92

----------
System: OVCAR-5
Experiment: Cytotoxicity against human OVCAR-5 cells incubated for 72 hrs by Cell titer blue assay
Type: functional, cell-based
Conditions: OVCAR-5, 72 h
Experimental Endpoint: IC50 (µM)
Give the value in µM but do not write µM after it.

Molecule: CC(=O)O[C@H]1C(=O)[C@@]2(C)[C@H]([C@H](OC(=O)c3ccccc3)[C@]3(O)C[C@H](OC(=O)[C@H](O)[C@@H](NC(=O)c4ccccc4)c4ccccc4)C(C)=C1C3(C)C)[C@]1(OC(C)=O)CO[C@@H]1C[C@@H]2O
Unit Descriptor: µM
IC50: 7.3

Now consider the entry below.
Note down IC50 recorded for CO[C@H]1C[C@H](O[C@H]2CC[C@]3(C)C4[C@H](O)C(=O)[C@]5(C)[C@@H](C6=CC(=O)OC6)CC[C@]5(O)[C@@]45O[C@H]5C[C@@H]3C2)O[C@@H](C)[C@@H]1O (some centres not stated)
0.44
